- measuredOn: cdk4/cyclin D1 (Homo sapiens)
- Sequence (P11802 whole entry): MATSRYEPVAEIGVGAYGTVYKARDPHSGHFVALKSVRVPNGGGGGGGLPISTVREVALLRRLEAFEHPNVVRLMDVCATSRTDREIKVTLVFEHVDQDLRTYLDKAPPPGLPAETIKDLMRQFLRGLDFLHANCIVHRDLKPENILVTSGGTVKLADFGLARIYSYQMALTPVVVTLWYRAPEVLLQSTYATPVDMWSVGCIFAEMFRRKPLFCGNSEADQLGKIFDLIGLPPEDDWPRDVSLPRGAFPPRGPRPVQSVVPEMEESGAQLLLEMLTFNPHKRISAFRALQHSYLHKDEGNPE
- Sequence (P24385 whole entry partner): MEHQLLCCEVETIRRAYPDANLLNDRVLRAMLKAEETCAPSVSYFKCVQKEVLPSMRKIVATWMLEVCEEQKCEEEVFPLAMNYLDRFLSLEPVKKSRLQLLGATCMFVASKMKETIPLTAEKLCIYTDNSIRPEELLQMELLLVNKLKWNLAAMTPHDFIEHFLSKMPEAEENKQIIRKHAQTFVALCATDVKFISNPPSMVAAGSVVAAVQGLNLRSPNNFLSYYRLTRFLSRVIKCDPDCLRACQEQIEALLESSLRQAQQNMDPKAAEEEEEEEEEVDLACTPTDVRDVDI
- assayProcedure: Cyclin-dependent kinase assay, cdk4/cyclin D1
- Assay type: biochemical
- condition: cyclin D1/cdk4; GST-pRb substrate, 10 µM ATP
Where a name gives a salt, the structure may show the parent alone.
endpointName: IC50 (nM)
One number for each entry, in nM.

Need IC50 for each of these compounds.
1. Cc1cccc(Cl)c1NC(=O)N1CCC(Nc2nc(N[C@H]3CC[C@H](N)CC3)nc3c2ncn3C2CCCC2)CC1 [compound 196, dihydrochloride]
2. N[C@H]1CC[C@H](Nc2nc(NC3CCN(C(=O)Nc4ccc(Br)cc4)CC3)c3ncn(C4CCCC4)c3n2)CC1 [compound 162, dihydrochloride]

### Response
1. 6
2. 603

====

- assayProcedure: in vivo
- condition: male, Hsd:ICR (CD-1), mouse, plasma, intravenous, 3 mg/kg
endpointName: concentration at 3 h

compound: Cl.Cl.N[C@H]1CC[C@H](Nc2nc(NC3CCN(C(=O)Nc4ccc(C(F)(F)F)cc4)CC3)c3ncn(C4CCCC4)c3n2)CC1 [compound 149, dihydrochloride]
concentration at 3 h: 0.0155 µg/mL

compound: Cl.Cl.N[C@H]1CC[C@H](Nc2nc(NC3CCN(C(=O)Oc4ccc(Cl)cc4)CC3)c3ncn(C4CCCC4)c3n2)CC1 [compound 88, dihydrochloride]
concentration at 3 h: 0.0248 µg/mL

Each compound below has a recorded value; state its concentration at 3 h.
1. Cl.Cl.N[C@H]1CC[C@H](Nc2nc(NC3CCN(C(=O)Oc4ccc([N+](=O)[O-])cc4)CC3)c3ncn(C4CCCC4)c3n2)CC1 [compound 89, dihydrochloride]
2. Cl.Cl.N[C@H]1CC[C@H](Nc2nc(NC3CCN(S(=O)(=O)c4cccc(C(F)(F)F)c4)CC3)c3ncn(C4CCCC4)c3n2)CC1 [compound 112, dihydrochloride]
3. Cc1ccc(OC(=O)N2CCC(Nc3nc(N[C@H]4CC[C@H](N)CC4)nc4c3ncn4C3CCCC3)CC2)cc1.Cl.Cl [compound 82, dihydrochloride]

### Response
1: 0.017 µg/mL; 2: 0.045 µg/mL; 3: 0.0375 µg/mL

Give one value of concentration at 3 h per listed compound.
1. Cl.Cl.N[C@H]1CC[C@H](Nc2nc(NC3CCN(C(=O)Oc4ccc(F)cc4)CC3)c3ncn(C4CCCC4)c3n2)CC1 [compound 87, dihydrochloride]
2. Cl.Cl.N[C@H]1CC[C@H](Nc2nc(NC3CCN(S(=O)(=O)c4ccc(F)cc4)CC3)c3ncn(C4CCCC4)c3n2)CC1 [compound 106, dihydrochloride]

### Response
0.0192 µg/mL
0.0218 µg/mL

====

- assayProcedure: Red blood cell binding, human whole blood
- Type: in vitro ADME
- condition: 30 minutes at 37°C, 500 ng/ml
endpointName: Mean Red Blood Cell to Plasma Ratio
One number for each entry.

Please review the following examples before continuing.
molecule: COC(=O)c1ccccc1S(=O)(=O)N1CCC(Nc2nc(N[C@H]3CC[C@H](N)CC3)nc3c2ncn3C2CCCC2)CC1.Cl.Cl [compound 111]
Mean Red Blood Cell to Plasma Ratio: 1.2

molecule: CCOC(=O)c1ccc(NC(=O)N2CCC(Nc3nc(N[C@H]4CC[C@H](N)CC4)nc4c3ncn4C3CCCC3)CC2)cc1.Cl.Cl [compound 154]
Mean Red Blood Cell to Plasma Ratio: 4.1

molecule: Cl.Cl.N[C@H]1CC[C@H](Nc2nc(NC3CCN(C(=O)Nc4ccc(C(F)(F)F)cc4)CC3)c3ncn(C4CCCC4)c3n2)CC1 [compound 149]
Mean Red Blood Cell to Plasma Ratio: 2.8

molecule: COc1ccc(OC(=O)N2CCC(Nc3nc(N[C@H]4CC[C@H](N)CC4)nc4c3ncn4C3CCCC3)CC2)cc1.Cl.Cl [compound 84]
Mean Red Blood Cell to Plasma Ratio: 2.0

molecule: Cl.Cl.N[C@H]1CC[C@H](Nc2nc(NC3CCN(S(=O)(=O)c4ccc(F)cc4)CC3)c3ncn(C4CCCC4)c3n2)CC1 [compound 106]
Mean Red Blood Cell to Plasma Ratio: 3.9

Dear reader, for each entry below, please note its Mean Red Blood Cell to Plasma Ratio.
1. Cl.Cl.N[C@H]1CC[C@H](Nc2nc(NC3CCN(C(=O)c4cccc(C(F)(F)F)c4F)CC3)c3ncn(C4CCCC4)c3n2)CC1 [compound 12]
2. Cl.Cl.N[C@H]1CC[C@H](Nc2nc(NC3CCN(C(=O)Oc4ccc(Br)cc4)CC3)c3ncn(C4CCCC4)c3n2)CC1 [compound 81]
3. COC(=O)c1ccc(OC(=O)N2CCC(Nc3nc(N[C@H]4CC[C@H](N)CC4)nc4c3ncn4C3CCCC3)CC2)cc1.Cl.Cl [compound 83]
4. Cl.Cl.N[C@H]1CC[C@H](Nc2nc(NC3CCN(C(=O)Oc4ccc(Cl)cc4)CC3)c3ncn(C4CCCC4)c3n2)CC1 [compound 88]
5. Cc1ccc(OC(=O)N2CCC(Nc3nc(N[C@H]4CC[C@H](N)CC4)nc4c3ncn4C3CCCC3)CC2)cc1.Cl.Cl [compound 82]
6. Cl.Cl.N[C@H]1CC[C@H](Nc2nc(NC3CCN(C(=O)Oc4ccc([N+](=O)[O-])cc4)CC3)c3ncn(C4CCCC4)c3n2)CC1 [compound 89]
7. Cl.Cl.N[C@H]1CC[C@H](Nc2nc(NC3CCN(C(=O)Oc4ccccc4)CC3)c3ncn(C4CCCC4)c3n2)CC1 [compound 85]
8. Cl.Cl.N#Cc1ccc(S(=O)(=O)N2CCC(Nc3nc(N[C@H]4CC[C@H](N)CC4)nc4c3ncn4C3CCCC3)CC2)cc1 [compound 109]

### Response
[3.6, 5.3, 4.1, 2.6, 5.8, 4.2, 7.1, 5.0]

Batch of 2 molecules: report Mean Red Blood Cell to Plasma Ratio for each.
1. Cl.Cl.N[C@H]1CC[C@H](Nc2nc(NC3CCN(S(=O)(=O)c4cccc(C(F)(F)F)c4)CC3)c3ncn(C4CCCC4)c3n2)CC1 [compound 112]
2. Cl.Cl.N[C@H]1CC[C@H](Nc2nc(NC3CCN(C(=O)Oc4ccc(F)cc4)CC3)c3ncn(C4CCCC4)c3n2)CC1 [compound 87]

### Response
3.7
8.4

====

- assayProcedure: in vivo
- condition: male, Hsd:ICR (CD-1), mouse, plasma, iv, 18 mg/kg
endpointName: concentration at 1 h (ng/mL)
One number for each entry, in ng/mL.

Report concentration at 1 h for every entry below.
1. COc1ccc(OC(=O)N2CCC(Nc3nc(N[C@H]4CC[C@H](N)CC4)nc4c3ncn4C3CCCC3)CC2)cc1.Cl.Cl [compound 84, dihydrochloride]
2. Cl.Cl.N#Cc1ccc(S(=O)(=O)N2CCC(Nc3nc(N[C@H]4CC[C@H](N)CC4)nc4c3ncn4C3CCCC3)CC2)cc1 [compound 109, dihydrochloride]
3. CCOC(=O)c1ccc(NC(=O)N2CCC(Nc3nc(N[C@H]4CC[C@H](N)CC4)nc4c3ncn4C3CCCC3)CC2)cc1.Cl.Cl [compound 154, dihydrochloride]

### Response
1. 202
2. 238
3. 126

====

- assayProcedure: in vivo
- condition: male, Hsd:ICR (CD-1), mouse, plasma, intravenous, 3 mg/kg
Please assign rule not met whenever concentration at 0.25 h is at or above 400 ng/mL, and rule met whenever it is below.

Look over these answered cases.
compound: Cl.Cl.N[C@H]1CC[C@H](Nc2nc(NC3CCN(C(=O)Oc4ccc(F)cc4)CC3)c3ncn(C4CCCC4)c3n2)CC1 [compound 87, dihydrochloride]
assignedCategory: rule met
--
compound: Cl.Cl.N[C@H]1CC[C@H](Nc2nc(NC3CCN(C(=O)Oc4ccc(Cl)cc4)CC3)c3ncn(C4CCCC4)c3n2)CC1 [compound 88, dihydrochloride]
assignedCategory: rule not met
--
compound: Cl.Cl.N[C@H]1CC[C@H](Nc2nc(NC3CCN(C(=O)Oc4ccc([N+](=O)[O-])cc4)CC3)c3ncn(C4CCCC4)c3n2)CC1 [compound 89, dihydrochloride]
assignedCategory: rule met
--
compound: Cl.Cl.N[C@H]1CC[C@H](Nc2nc(NC3CCN(S(=O)(=O)c4cccc(C(F)(F)F)c4)CC3)c3ncn(C4CCCC4)c3n2)CC1 [compound 112, dihydrochloride]
assignedCategory: rule not met
--
compound: Cc1ccc(OC(=O)N2CCC(Nc3nc(N[C@H]4CC[C@H](N)CC4)nc4c3ncn4C3CCCC3)CC2)cc1.Cl.Cl [compound 82, dihydrochloride]
assignedCategory: rule not met

### Prompt is_below(concentration at 0.25 h, 400 ng/mL) for Cl.Cl.N[C@H]1CC[C@H](Nc2nc(NC3CCN(C(=O)Nc4ccc(C(F)(F)F)cc4)CC3)c3ncn(C4CCCC4)c3n2)CC1 [compound 149, dihydrochloride] ?
### Response rule not met

====

- measuredOn: cdk2/cyclin E (Homo sapiens, UniProt P24941)
- assayProcedure: Cyclin-dependent kinase assay, cdk2/cyclin E
- condition: CDK2 IC50, nM, GST-pRb substrate, 10 µM ATP
Structures can show the parent of a compound that is named as a salt.
endpointName: IC50 (nM)
One number for each entry, in nM.

As a guide, the following entries are already answered.
compound: N[C@H]1CC[C@H](Nc2nc(NC3CCN(C(=O)Nc4ccc(Cl)cc4C(F)(F)F)CC3)c3ncn(C4CCCC4)c3n2)CC1 [compound 178, dihydrochloride]
IC50 [nM]: 100

compound: N[C@H]1CC[C@H](Nc2nc(NC3CCN(C(=O)c4cccs4)CC3)c3ncn(C4CCCC4)c3n2)CC1 [compound 10, dihydrochloride]
IC50 [nM]: 57

Okay, next one:
### Prompt State the recorded IC50 for this entry: N[C@H]1CC[C@H](Nc2nc(NC3CCN(C(=O)c4cccc(Cl)c4)CC3)c3ncn(C4CCCC4)c3n2)CC1 [compound 6, dihydrochloride]
### Response 201
